Where these numbers come from: PubChem BioAssay (NCATS)

# Tested on: Tov-21-G
# measurement_description: Primary qHTS to identify gynecologic anti-cancer compounds using libraries of approved drugs and bioactive compounds (AID 1345084); further: on the % scale 0 is the no-effect control and ±100 the full control effect; nearly all actives have a fitted effect of over 55% in size
# measurement_conditions: Gynecologic cancer cell panel viability, ATPlite luminescence, 48 h; series mostly up to 57.5 µM
Inconclusive results are not listed. The source made the active and inactive calls. The call rests on the fitted dose curve; in most records, active means well fitted cell-killing curve with a large enough effect; inconclusive means small, poorly fitted or top-dose-only effect, or effect the other way; inactive means flat fitted curve, though single readings scatter. *1 amine or outer side, *2 acyl side, *3 side chain or, on linkers, in order; H or OH if unused. Where a SMILES comes first, the peptide text is derived from it. Bridges are numbered along the chain shown (N, C = ends). [ ]: non-standard residue; d: D form. The star is where a group is joined. ξ: configuration not given here. X10 = NC1=NCCC(C(N[*:1])C(=O)[*:2])N1; ΔAla(3-NHCONH2) = NC(=O)NC=C(N)C(=O)O; ξβ3hOrn = NCCCC(N)CC(=O)*; Dap = NC[CH](N)C(=O)O
For each record, write down the corresponding activity change, negative = cytotoxicity.

Q) Give recorded activity change, negative = cytotoxicity. `N[C@@H](Cn1ccc(=O)c(O)c1)C(=O)O`
A) -4.16% [at 6.55 µM] (inactive)

Q) Specify activity change, negative = cytotoxicity for CC1CN(c2cc3c(cc2F)c(=O)c(C(=O)O)cn3-c2ccc(F)cc2F)CCN1 (centres undefined) and stop.
A) -0.759% [at 6.55 µM] (inactive)

Q) Please look at this compound and report its activity change, negative = cytotoxicity: NCCCC(N)CC(=O)NCC1NC(=O)C(CO)NC(=O)C(N)CNC(=O)C(C2CCN=C(N)N2)NC(=O)C(=CNC(N)=O)NC1=O (stereo not drawn) (H-[Dap]S[Dap](ξβ3hOrn)[ΔAla(3-NHCONH2)][X10]; lactam 1-C; configuration not given here)
A) 4.2% [at 0.462 µM] (inactive)

Q) Give the measured activity change, negative = cytotoxicity for `NCC[C@H](O)C(=O)N[C@@H]1C[C@H](N)[C@@H](O[C@H]2O[C@H](CN)[C@@H](O)[C@H](O)[C@@H]2O)[C@H](O)[C@@H]1O[C@H]1O[C@H](CO)[C@@H](O)[C@H](N)[C@@H]1O`
A) 7.33% [at 0.462 µM] (inactive)
